Entry source: PubChem BioAssay (NCI)

- System: SNB-75 CNS
- test.details: NCI tumour cell line growth inhibition, 48 h
Could you please report measured TGI for the items listed next?

Consider the following illustrative entries.
N#Cc1ccc(O)c(C2=NCC(c3cccc(Oc4ccccc4)c3)O2)c1 (centres undefined)    > 100 µM
c1ccc(/C(=N/Nc2ccccn2)c2ncccn2)cc1    16.2 µM

For every record below, what is its TGI?
1. COc1ccc2c(c1)CN1C(=N2)CSC1c1ccccc1Cl (centres undefined)
2. O=C1CCC(=O)N2CCCCN12
3. C=C1C(=O)O[C@H]2[C@H]1CC/C(Cn1cc(-c3ccc(OC)cc3)nn1)=C\CC[C@@]1(C)O[C@@H]21
4. O=C(c1ccccc1)c1nnc(C(=O)c2ccccc2)nn1
5. NC1CNC(=O)c2c(Cl)sc(Cl)c21 (centres undefined)

Given back:
1. 48.8 µM
2. > 100 µM
3. 3.28 µM
4. > 344 µM
5. > 100 µM

Can you give me TGI for all of these, one by one?
1. CC(=O)OCC(OC(C)=O)C1C[C@H]2O[C@@H]3[C@H](C[C@H]2O1)O[C@@]1(C[C@@H]3C)C[C@H](C)[C@@H]2O[C@]3(C[C@@H]2O1)C[C@H]1O[C@H]2[C@H](C)[C@H]4OC(=O)CC5CC[C@H]6OC7[C@H]8O[C@]9(CC[C@H]%10CC(O)(CO)[C@H](CC[C@H]%11C[C@@H](C)C(O)(CO)C(C[C@@H]4O[C@H]2C[C@H]1O3)O%11)O%10)CC8O[C@@H]7[C@@H](O9)[C@H]6O5 (some centres undefined)
2. O=c1c2ccccc2nc(Nc2cccc(Cl)c2)n1/N=C/C=C/c1ccccc1

Given back:
["> 1 µM", "> 100 µM"]

* * *

- System: MALME-3M melanoma
- test.details: NCI tumour cell line growth inhibition, 48 h; in the data active = GI50 below about 0.43 µM; inactive = the rest
Lab note: assign the record to one of label 1 for active, label 0 for inactive

Example results:
CC[CH2][Sn]([CH2]CC)([O]C(=O)c1cccnc1SC)[O][Sn]([CH2]CC)([CH2]CC)[O]C(=O)c1cccnc1SC    label 1
COc1cc(C2=C(c3ccccc3)COC2=O)cc(OC)c1OC    label 0
O=c1[nH]ncc(Br)c1Br    label 0
N#Cc1ccc(O)c(C2=NCC(c3cccc(Oc4ccccc4)c3)O2)c1 (stereo not given)    label 0

Asked: Kindly provide the recorded test outcome for the following compound: "Nc1cc(N)c2nc(-c3ccccc3)c(Nc3ccc(Cl)c(Cl)c3)nc2c1"
Given back: label 0

* * *

Task for the reader: assign each of the following compounds its reported TGI.
- System: EKVX NSCLC
- test.details: NCI tumour cell line growth inhibition, 48 h

# annotated cases, reported TGI shown
N#Cc1ccc(NC(=O)Nc2ccc(Oc3ccc(NC(=O)Nc4ccc(C#N)cc4)cc3)cc2)cc1    > 100 µM
COC(=O)C1Cc2c(n(Cc3ccccc3)c3ccccc23)C(CCC(=O)O)N1C(C)C (stereo not given)    > 100 µM
CC1(C)OC2[C@@H](CNC(=O)NC(=O)NC(=O)CI)O[C@@H](n3cnc4c(NC(=O)Nc5ccccc5)ncnc43)[C@H]2O1 (stereo not given in full)    > 50 µM
CC(C)(C)OC(=O)N1CCc2c(sc3ncnc(N/N=C/c4cccc5ccccc45)c23)C1    > 100 µM

Proceeding to the next compound to report its TGI.
Asked: Item O=C(O)C(CO)NC(=O)n1c2ccccc2c2ccccc21 (stereo not given) : provide TGI
Given back: > 100 µM
